Hey, just so you know, these numbers are from patent US8658604B2.

# target_of_assay: Chymase, from human skin (Homo sapiens)
# Sequence (P23946 22-247): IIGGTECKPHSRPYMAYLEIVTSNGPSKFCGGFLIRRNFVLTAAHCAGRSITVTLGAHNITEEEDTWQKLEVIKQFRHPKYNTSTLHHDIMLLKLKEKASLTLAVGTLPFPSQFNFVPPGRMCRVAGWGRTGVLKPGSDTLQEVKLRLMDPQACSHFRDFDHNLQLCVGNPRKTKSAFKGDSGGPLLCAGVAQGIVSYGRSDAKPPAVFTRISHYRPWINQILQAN
# test_protocol: Enzymatic assay, chymase
Where a SMILES comes first, the peptide text is derived from it.
Outcome label depends on Chymase at 100 μM % relative to 7%: at/above gives yes, below gives no.

Sample answers from the record:
Request: Evaluate CC[C@H](C)[C@@H]1NC(=O)[C@@H]2CCCN2C(=O)[C@@H]2CCCN2C(=O)[C@H](CC(=O)O)NC(=O)[C@H](CO)NC(=O)[C@H](CCCCN)NC(=O)[C@H]([C@@H](C)O)NC(=O)[C@@H]2CSSC[C@H](NC1=O)C(=O)N[C@@H](CO)C(=O)N1CCC[C@@H]1C(=O)N[C@@H](CC(=O)O)C(=O)N[C@@H](Cc1ccccc1)C(=O)N2 [Ex. 47] (HELM PEPTIDE1{F.C.T.K.S.D.P.P.I.C.S.[dP].D}$PEPTIDE1,PEPTIDE1,2:R3-10:R3|PEPTIDE1,PEPTIDE1,1:R1-13:R2$$$V2.0) : Chymase at 100 μM % at minimum 7%?
Response: yes

Request: Is reported Chymase at 100 μM % greater than or equal to 7% here: CC[C@H](C)[C@@H]1NC(=O)[C@@H]2CCCN2C(=O)[C@@H]2CCCN2C(=O)[C@H](CC(=O)O)NC(=O)[C@H](CO)NC(=O)[C@H](CCCCN)NC(=O)[C@H]([C@@H](C)O)NC(=O)[C@@H]2CSSC[C@H](NC1=O)C(=O)N[C@@H](Cc1ccc(O)cc1)C(=O)N1CCC[C@@H]1C(=O)N1CCC[C@H]1C(=O)N[C@@H](Cc1ccc(O)cc1)C(=O)N2 [Ex. 26] (HELM PEPTIDE1{Y.C.T.K.S.D.P.P.I.C.Y.[dP].P}$PEPTIDE1,PEPTIDE1,2:R3-10:R3|PEPTIDE1,PEPTIDE1,1:R1-13:R2$$$V2.0)
Response: no

Request: Decide: Chymase at 100 μM % of CCCC[C@@H]1NC(=O)[C@H](CC(=O)O)NC(=O)[C@H]2CCCN2C(=O)[C@H](Cc2ccc(O)cc2)NC(=O)[C@@H]2CSSC[C@H](NC1=O)C(=O)N[C@@H]([C@@H](C)O)C(=O)N[C@@H](C)C(=O)N[C@@H](CO)C(=O)N[C@@H]([C@@H](C)CC)C(=O)N1CCC[C@H]1C(=O)N1CCC[C@H]1C(=O)N[C@@H](CCC(N)=O)C(=O)N2 [Ex. 121] (HELM PEPTIDE1{[Nle].C.T.A.S.I.P.P.Q.C.Y.[dP].D}$PEPTIDE1,PEPTIDE1,2:R3-10:R3|PEPTIDE1,PEPTIDE1,1:R1-13:R2$$$V2.0) >= 7%?
Response: no

Request: I'd appreciate it if you could say whether C[C@@H](O)[C@@H]1NC(=O)[C@@H]2CSSC[C@H](NC(=O)[C@H](CC3CCCCC3)NC(=O)[C@@H]3CCCN3C(=O)[C@@H]3CCCN3C(=O)[C@H](CC(=O)O)NC(=O)[C@H](CO)NC(=O)[C@H](CCCCN)NC1=O)C(=O)N[C@@H](CO)C(=O)N1CCC[C@@H]1C(=O)N1CCC[C@H]1C(=O)N[C@@H](Cc1ccccc1)C(=O)N2 [compound 54] (HELM PEPTIDE1{F.C.T.K.S.D.P.P.[Cha].C.S.[dP].P}$PEPTIDE1,PEPTIDE1,2:R3-10:R3|PEPTIDE1,PEPTIDE1,1:R1-13:R2$$$V2.0) has Chymase at 100 μM % at least equal to 7%.
Response: yes

Request: Answer whether Chymase at 100 μM % of CC[C@H](C)[C@@H]1NC(=O)[C@@H]2CCCN2C(=O)[C@@H]2CCCN2C(=O)[C@H](CC(=O)O)NC(=O)[C@H](CO)NC(=O)[C@H](CCCCN)NC(=O)[C@H]([C@@H](C)O)NC(=O)[C@@H]2CSSC[C@H](NC1=O)C(=O)N[C@@H](CO)C(=O)N1CCC[C@@H]1C(=O)N1CCC[C@H]1C(=O)N[C@@H](Cc1ccccc1)C(=O)N2 [Ex. 4] (HELM PEPTIDE1{F.C.T.K.S.D.P.P.I.C.S.[dP].P}$PEPTIDE1,PEPTIDE1,2:R3-10:R3|PEPTIDE1,PEPTIDE1,1:R1-13:R2$$$V2.0) is greater than or equal to 7%.
Response: no

---
Request: Decide: Chymase at 100 μM % of CC[C@H](C)[C@@H]1NC(=O)[C@@H]2CCCN2C(=O)[C@@H]2CCCN2C(=O)[C@H](CC(=O)O)NC(=O)[C@H](CO)NC(=O)[C@H](CCCCN)NC(=O)[C@H]([C@@H](C)O)NC(=O)[C@@H]2CSSC[C@H](NC1=O)C(=O)N[C@@H](Cc1ccc(O)cc1)C(=O)N1CCC[C@@H]1C(=O)N1CCC[C@H]1C(=O)N[C@@H](C1CCCCC1)C(=O)N2 [Ex. 40] (HELM PEPTIDE1{[O=C([C@@H](N[*:1])C1CCCCC1)[*:2]].C.T.K.S.D.P.P.I.C.Y.[dP].P}$PEPTIDE1,PEPTIDE1,2:R3-10:R3|PEPTIDE1,PEPTIDE1,1:R1-13:R2$$$V2.0) >= 7%?
Response: yes

Request: In plain terms: is recorded Chymase at 100 μM % at least 7% for CC[C@H](C)[C@@H]1NC(=O)[C@@H]2CCCN2C(=O)[C@@H]2CCCN2C(=O)[C@H](CC(=O)O)NC(=O)[C@H](CO)NC(=O)[C@H](CCCCN)NC(=O)[C@H]([C@@H](C)O)NC(=O)[C@@H]2CSSC[C@H](NC1=O)C(=O)N[C@@H](Cc1ccc(O)cc1)C(=O)N1CCC[C@@H]1C(=O)N1CCC[C@H]1C(=O)N[C@@H](CCc1ccccc1)C(=O)N2 [Ex. 30] (HELM PEPTIDE1{[O=C([C@H](CCc1ccccc1)N[*:1])[*:2]].C.T.K.S.D.P.P.I.C.Y.[dP].P}$PEPTIDE1,PEPTIDE1,2:R3-10:R3|PEPTIDE1,PEPTIDE1,1:R1-13:R2$$$V2.0) ?
Response: no
